target: ZFP SBS#910 (synthetic); assay: EMSA; settings: tags: MBP fusion
Sequence (chain, as listed by the source): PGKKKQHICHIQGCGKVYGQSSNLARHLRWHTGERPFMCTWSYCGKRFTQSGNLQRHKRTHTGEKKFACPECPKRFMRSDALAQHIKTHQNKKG
ASSAY METRIC: Kd

binder="ATGGAAGAT (dsDNA) DNA 1: ATGGAAGAT DNA 2: ATCTTCCAT" assay_metric=Kd measured_value="30 pM"
